Task for the reader: assign each of the following sequences its reported phosphorylation enrichment.
system: c-Abl (mouse); assay: phosphorylation enrichment, bacterial display (enrichment ratio); higher = better substrate or ligand; peptides without Tyr show the background;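 further: 11-residue human phosphosite peptides and single-mutation variants displayed on the E. coli surface, counted by deep sequencing, each peptide's frequency after selection divided by its frequency in the unselected input library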;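 further: frequency after pTyr selection over input frequency; kinase dosed for 20-30% of maximal phosphorylation in three min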

Problem: Report value only: phosphorylation enrichment, c-Abl (mouse), YRVAGYETQGG [TIA1_Y383]
Result: 0.906

Problem: Would you please give the reported phosphorylation enrichment of KHMADYPDFKF [SOX11_Y113_YF] with c-Abl (mouse)?
Result: 0.591

Problem: Consider the sequence RAIGYYSATSK [FAM120A_Y328] tested on c-Abl (mouse); state its phosphorylation enrichment.
Result: 0.639

---

biological target: Hck (UniProt P08631); experiment: phosphorylation enrichment, bacterial display (enrichment ratio); higher = better substrate or ligand; peptides without Tyr show the background
Sequence (P08631 whole entry, looked up): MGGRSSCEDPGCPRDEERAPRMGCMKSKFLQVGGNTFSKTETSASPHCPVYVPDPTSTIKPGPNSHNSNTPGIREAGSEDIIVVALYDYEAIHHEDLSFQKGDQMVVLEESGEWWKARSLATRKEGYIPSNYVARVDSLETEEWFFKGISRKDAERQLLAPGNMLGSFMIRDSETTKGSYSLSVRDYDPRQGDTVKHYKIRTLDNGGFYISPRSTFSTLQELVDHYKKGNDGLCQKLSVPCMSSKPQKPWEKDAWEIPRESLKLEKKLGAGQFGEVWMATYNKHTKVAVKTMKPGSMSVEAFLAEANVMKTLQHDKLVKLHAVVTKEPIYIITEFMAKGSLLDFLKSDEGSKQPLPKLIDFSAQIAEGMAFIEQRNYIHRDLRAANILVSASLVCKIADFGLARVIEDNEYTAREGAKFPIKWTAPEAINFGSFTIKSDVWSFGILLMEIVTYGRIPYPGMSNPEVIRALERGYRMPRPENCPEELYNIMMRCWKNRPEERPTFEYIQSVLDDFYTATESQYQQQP
I'd appreciate it if you could supply phosphorylation enrichment values for the items below.
Output: the number by itself.

Problem: Identify measured phosphorylation enrichment obtained with Hck (UniProt P08631) for SHNKYYMLVAR [MFSD8_Y134] .
Result: 0.658

Problem: Retrieve phosphorylation enrichment on Hck (UniProt P08631); query QITQVCGFFDE [PPP2CA_Y127_Y127C_YF]
Result: 0.645

Problem: Give Hck (UniProt P08631) phosphorylation enrichment for the following sequence: CPYNLYAEQLS [HGD_Y40]
Result: 2.39
